# Test Target: mGlu7 receptor (Homo sapiens)
# Construct: expressed in transfected cells; host or cells: HEK 293 cells
# Test: mGlu7 PAM assay (Ca2+ response, concentration response)
# Assay type: cell-based
# Test Parameters: confirmed hits of virtual screening
Endpoint: Emax (%)

Example results:
{"Compound": "COc1ccc(CN2CCc3c(nc(N4CCC(C)CC4)[nH]c3=O)C2)cc1 [compound 5]", "Test Target": "mGlu7 receptor (Homo sapiens)", "Endpoint": "Emax", "Units Text": "%", "Observed Value": 99}
{"Compound": "CC1CCN(c2nc(-c3ccncc3)nc3cnccc23)CC1 [compound 6]", "Test Target": "mGlu7 receptor (Homo sapiens)", "Endpoint": "Emax", "Units Text": "%", "Observed Value": 65}

P: COc1c(F)cccc1COc1ccc(C(=O)N[C@H](C)C(C)(C)C)cn1 [compound 2]
Q: CC(C)(C)OC(=O)N1CCc2ccc(-n3cc(-c4ccncc4)cn3)cc2CC1 [compound 4]
**Q:** Two entries are listed, P and Q . Which one carries the higher Emax? Record your answer as the label of the chosen record.
**A:** P

* * *

# Test Target: mGlu7 receptor (Homo sapiens, UniProt Q14831)
# Construct: expressed in transfected cells; host or cells: HEK 293 cells
# Sequence (Q14831 35-915): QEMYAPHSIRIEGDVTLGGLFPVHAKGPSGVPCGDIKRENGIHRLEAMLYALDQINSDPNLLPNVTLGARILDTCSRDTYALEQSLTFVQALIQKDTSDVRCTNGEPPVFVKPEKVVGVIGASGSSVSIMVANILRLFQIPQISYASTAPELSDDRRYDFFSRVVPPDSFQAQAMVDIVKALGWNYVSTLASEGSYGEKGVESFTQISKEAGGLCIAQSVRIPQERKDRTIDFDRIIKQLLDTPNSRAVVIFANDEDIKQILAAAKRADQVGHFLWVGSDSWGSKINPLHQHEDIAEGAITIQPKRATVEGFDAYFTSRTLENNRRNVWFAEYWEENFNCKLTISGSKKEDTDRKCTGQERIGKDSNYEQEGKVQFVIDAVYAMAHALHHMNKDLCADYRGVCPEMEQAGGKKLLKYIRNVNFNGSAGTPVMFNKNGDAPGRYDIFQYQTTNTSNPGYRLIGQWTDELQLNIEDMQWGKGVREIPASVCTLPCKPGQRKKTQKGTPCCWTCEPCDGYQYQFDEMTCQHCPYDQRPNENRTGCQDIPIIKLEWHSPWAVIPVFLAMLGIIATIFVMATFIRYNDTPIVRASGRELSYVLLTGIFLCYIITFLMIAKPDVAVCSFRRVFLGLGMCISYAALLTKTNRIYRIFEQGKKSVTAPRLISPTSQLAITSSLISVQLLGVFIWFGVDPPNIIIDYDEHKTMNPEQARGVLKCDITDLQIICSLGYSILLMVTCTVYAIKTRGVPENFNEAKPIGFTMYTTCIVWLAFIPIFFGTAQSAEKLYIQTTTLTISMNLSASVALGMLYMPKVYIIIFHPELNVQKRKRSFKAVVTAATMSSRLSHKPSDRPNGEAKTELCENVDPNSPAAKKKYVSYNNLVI
# Test: mGlu7 PAM assay (Ca2+ response, concentration response)
# Assay type: cell-based
# Test Parameters: confirmed hits of virtual screening, concentration response; read-out: mGlu7 PAM pEC50 (converted)
Endpoint: EC50 (µM)

Example results:
{"Compound Smiles": "COc1c(F)cccc1COc1ccc(C(=O)N[C@H](C)C(C)(C)C)cn1", "Units Text": "µM", "EC50": 12.6}
{"Compound Smiles": "COc1cc(F)cc(COc2ccc(C(=O)N[C@H](C)C(C)(C)C)cn2)c1", "Units Text": "µM", "EC50": 12.6}

a: COc1ccc(CN2CCc3c(nc(N4CCC(C)CC4)[nH]c3=O)C2)cc1
b: CC(C)(C)OC(=O)N1CCc2ccc(-n3cc(-c4ccncc4)cn3)cc2CC1
**Q:** Two entries are listed, a and b . Which one carries the higher EC50? Record your answer as the label of the chosen record.
**A:** b
